Values compiled from patent US8524713B2.

Counter-ions that a name gives are not always drawn.
property_name: melting point

Worked cases, melting point given:
O=c1ccc(-c2ccc3c(c2)CCC2(CCN(C4CCC4)CC2)O3)n[nH]1 : 273 to 275 °C
Cn1nc(-c2ccc3c(c2)COC2(CCN(C4CCC4)CC2)O3)ccc1=O : 185 to 187 °C

Query :: Retrieve melting point measured for `Cn1nc(-c2ccc3c(c2)CCC2(CCN(C4CCC4)CC2)O3)ccc1=O` and print it.
Result :: 147 to 149 °C

Query :: Retrieve melting point measured for `O=c1cc(-c2ccccc2)c(-c2ccc3c(c2)COC2(CCN(C4CCC4)CC2)O3)n[nH]1` and print it.
Result :: 260 to 262 °C

Query :: Retrieve melting point measured for `Cc1cc(=O)[nH]nc1-c1ccc2c(c1)CCC1(CCN(C3CCC3)CC1)O2` and print it.
Result :: 270 to 272 °C

Query :: Retrieve melting point measured for O=c1cccnn1CC(O)COc1ccc2c(c1)CCC1(CCN(C3CCC3)CC1)O2 (centres unmarked) (as salt: HCl) and print it.
Result :: 201 to 203 °C

Query :: Retrieve melting point measured for Cc1cc2c(cc1-c1ccc(=O)n(C)n1)COC1(CCN(C3CCC3)CC1)O2 (as salt: HCl) and print it.
Result :: 269 to 270 °C

Query :: Retrieve melting point measured for Cc1cc(=O)[nH]nc1-c1ccc2c(c1)COC1(CCN(C3CCC3)CC1)O2 (as salt: HCl) and print it.
Result :: 265 to 267 °C

Query :: Retrieve melting point measured for `Clc1ccc(-c2ccc3c(c2)CC2(CCN(C4CCC4)CC2)O3)nn1` and print it.
Result :: 193 to 194 °C

Query :: Retrieve melting point measured for `O=c1ccc(Oc2ccc3c(c2)CCC2(CCN(C4CCC4)CC2)O3)n[nH]1` and print it.
Result :: 233 to 235 °C

Query :: Retrieve melting point measured for `O=c1[nH]nc(-c2ccc3c(c2)COC2(CCN(C4CCC4)CC2)O3)c2ccccc12` and print it.
Result :: 258 to 259 °C

Query :: Retrieve melting point measured for CC1CC(=O)NN=C1c1ccc2c(c1)CC1(CCN(C3CCC3)CC1)O2 (centres unmarked) and print it.
Result :: 213 to 215 °C

Query :: Retrieve melting point measured for `O=c1ccc(-c2ccc3c(c2)COC2(CCN(C4CCC4)CC2)O3)n[nH]1` and print it.
Result :: 273 to 275 °C

Query :: Retrieve melting point measured for O=C1NN=C(c2ccc3c(c2)CC2(CCN(C4CCC4)CC2)O3)C2CC12 (centres unmarked) and print it.
Result :: 189 to 191 °C

Query :: Retrieve melting point measured for `O=C1CCC(c2ccc3c(c2)CCC2(CCN(C4CCC4)CC2)O3)=NN1` and print it.
Result :: 242 to 243.5 °C

Query :: Retrieve melting point measured for `CC(C)N1CCC2(CCc3cc(C4=NNC(=O)C(C)(C)C4)ccc3O2)CC1` and print it.
Result :: 210 to 213 °C

Query :: Retrieve melting point measured for `O=C1CCC(c2ccc3c(c2)CC2(CCN(C4CCC4)CC2)O3)=NN1` and print it.
Result :: 207 to 209 °C
